Test system: HEK293
Assay: Cytotoxic Profiling of Annotated Libraries Using Quantitative High-Throughput Screening (AID 1296008); note: % is set by controls: 0 for no effect and ±100 for the full control effect; nearly all actives have a fitted effect of over 60% in size
Details: Five cell lines viability, CellTiter-Glo ATP luminescence, 48-72 h; stronger effect = lower value
Results filed as inconclusive are left out.
quantity.name: max response (%)
The figure you give is taken to be in %; do not add the unit.

>>> readout_number("C#C[C@]1(O)CC[C@H]2[C@@H]3CCC4=CC(=O)CC[C@@H]4[C@H]3CC[C@@]21CC")
-17.9
>>> readout_number("CCN(CC)CCNC(=O)COc1ccc(OC)cc1")
4.77
>>> readout_number("C/C=C/C=N/NC(=O)c1ccncc1")
-6.37
>>> readout_number("NC(=S)N/N=C/c1cccnc1")
-29.1

Form field - read-out: max response; system: HEK293; submitted item: CCNC(=O)NCc1cccc(Cl)c1 4.87

----------
Below is a list of entries, each paired with its recorded max response value.
Tested on: HaCat
Experiment: Cytotoxic Profiling of Annotated Libraries Using Quantitative High-Throughput Screening (AID 1296008); note: % is set by controls: 0 for no effect and ±100 for the full control effect; nearly all actives have a fitted effect of over 60% in size
Details: Five cell lines viability, CellTiter-Glo ATP luminescence, 48-72 h; stronger effect = lower value
Records with an inconclusive call do not appear. The source made the active and inactive calls. Calls follow the shape of the dose curve; as a rule, active = well fitted inhibition curve with a large enough effect; inconclusive = small, poorly fitted or top-dose-only effect; inactive = flat fitted curve, though single readings scatter.

Previously resolved entries follow.
>>> result("CCCCC(CC)COC(=O)c1ccc(N(C)C)cc1 (configuration not stated)")
"-11.9% (inactive)"
>>> result("O=C(N/N=C/c1ccc([N+](=O)[O-])o1)c1ccc(O)cc1")
"-33.9% (inactive)"
>>> result("Nc1ccc(S(=O)(=O)Nc2cnc3ccccc3n2)cc1")
"-4.06% (inactive)"
>>> result("Cc1nc(-c2ccc(Cl)cc2)oc1COC(C)(C)C(=O)O")
"3.89% (inactive)"
>>> result("Cc1cc(-c2ccccc2)nnc1NCCN1CCOCC1")
"-33.8% (inactive)"

Request the reported max response associated with CCN1CCCC(OC(=O)C(c2ccccc2)c2ccccc2)C1 (configuration not stated) -8.51% (inactive)

----------
Experiment: qHTS Assay for Identifying Gametocytocidal Compounds (AID 743244);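 note: % is set by controls: 0 for no effect and ±100 for the full control effect; actives lower the fluorescent signal which means gametocytes are killed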
Details: P. falciparum 3D7 stage III-V gametocytes, alamarBlue, 72 h; stronger effect = lower value
Results filed as inconclusive are left out.
quantity.name: max response (%)
The figure you give is taken to be in %; do not add the unit.

Previously resolved entries follow.
>>> readout_number("OC[C@H]1O[C@@H]2O[C@H]3[C@H](O)[C@@H](O)[C@@H](O[C@H]4[C@H](O)[C@@H](O)[C@@H](O[C@H]5[C@H](O)[C@@H](O)[C@@H](O[C@H]6[C@H](O)[C@@H](O)[C@@H](O[C@H]7[C@H](O)[C@@H](O)[C@@H](O[C@H]8[C@H](O)[C@@H](O)[C@@H](O[C@H]1[C@H](O)[C@H]2O)O[C@@H]8CO)O[C@@H]7CO)O[C@@H]6CO)O[C@@H]5CO)O[C@@H]4CO)O[C@@H]3CO")
2.64
>>> readout_number("CC(C)[N+](C)(C)CC(O)COc1cccc2ccccc12 (centres undefined)")
-10.5
>>> readout_number("N[C@H](C(=O)O)[C@@H](O)c1ccc(O)c(O)c1")
1.39
>>> readout_number("CC(=O)OCC(=O)[C@H]1CC[C@H]2[C@@H]3CCC4=CC(=O)CC[C@]4(C)[C@H]3CC[C@]12C")
-7.41
>>> readout_number("CN(C)C(=O)Nc1ccc(Cl)c(Cl)c1")
-3.3

Request the reported max response associated with N#C/C(=C1\SCC(c2ccccc2Cl)S1)n1ccnc1 (centres undefined) 17.4

Request the reported max response associated with O=C(O)C(Cc1cc(I)c(O)c(I)c1)c1ccccc1 (centres undefined) -2.86

Request the reported max response associated with C[C@@H](O)[C@H]1C(=O)N2C(C(=O)O)=C(S[C@@H]3CN[C@H](CNS(N)(=O)=O)C3)[C@H](C)[C@H]12 13.8

Request the reported max response associated with Cc1cccc(C)c1NC(=O)CN1CCCC1 20.5

Request the reported max response associated with C#C[C@]1(O)CC[C@H]2[C@@H]3[C@H](C)CC4=C(CCC(=O)C4)[C@H]3CC[C@@]21C -5.37

Request the reported max response associated with C#C[C@]1(O)CC[C@H]2[C@@H]3CCc4cc(OC)ccc4[C@H]3CC[C@@]21C -2.6

Request the reported max response associated with CC(C)Cc1ccc(CC(=O)O)cc1 6.47

Request the reported max response associated with Cc1cccc(C)c1NC(=O)c1ccccc1C(=O)O -7.1

Request the reported max response associated with CCOC(=O)[C@@](C)(N)Cc1ccc(O)c(O)c1 1.03

Request the reported max response associated with CCCCCCCCCCCCCC(=O)OC(C)C -3.41

Request the reported max response associated with COc1cc([C@H]2Oc3cc([C@H]4Oc5cc(O)cc(O)c5C(=O)[C@@H]4O)ccc3O[C@@H]2CO)ccc1O -1.37

Request the reported max response associated with CN1CCN(C2=Nc3ccccc3Sc3ccc(Cl)cc32)CC1 -0.118

Request the reported max response associated with OC[C@H]1O[C@@H](Oc2ccc(O)cc2)[C@H](O)[C@@H](O)[C@@H]1O 0.374

Request the reported max response associated with CCNC(=O)/C=C/c1cccc(Br)c1 3.79
